Collected percent inhibition of viability values appear next to each entry.
System: normal primary NK cells, pool 3 (3 donors) (IL-2 2.5 ng/mL)
Assay: percent inhibition of viability; higher = more inhibition
Conditions: 72 h; 10 nM

Some entries whose results are on file:
INPUT: What does the data say about its percent inhibition of viability? Entry: CN1CCC(COc2cnc(-c3cccc(Cn4nc(-c5cccc(C#N)c5)ccc4=O)c3)nc2)CC1 (max concentration tested 1000 nM)
OUTPUT: -7.75%

INPUT: Would you mind doing CNC(=O)CN1CCC(Oc2cc3c(Nc4cccc(Cl)c4F)ncnc3cc2OC)CC1 [Sapitinib] (max concentration tested 1000 nM) as well?
OUTPUT: 0.1%

Continue with the molecule presented below.
INPUT: What does the data say about its percent inhibition of viability? Entry: Nc1ncn([C@@H]2O[C@H](CO)[C@@H](O)[C@H]2O)c(=O)n1 [Azacitidine] (max concentration tested 10000 nM)
OUTPUT: -3.68%

----------
Tested on: normal NK cells expanded with K562-aAPC
Experiment: drug sensitivity score (DSS) (DSS units); higher = more sensitive; extreme values may be limits of the assay
Details: 72 h; IL-2 2.5 ng/mL
Collected drug sensitivity score values appear next to each entry.
The reply should be a number, written without any unit.

Some entries whose results are on file:
INPUT: Missing value: drug sensitivity score, normal NK cells expanded with K562-aAPC, entry CC(C)(C)c1cnc(CSc2cnc(NC(=O)C3CCNCC3)s2)o1 [SNS-032] (max concentration tested 10000 nM) . Fill in?
OUTPUT: 22.3

INPUT: Would you mind doing CCC(C)n1ncn(-c2ccc(N3CCN(c4ccc(OCC5COC(Cn6cncn6)(c6ccc(Cl)cc6Cl)O5)cc4)CC3)cc2)c1=O (stereo unspecified) [Itraconazole] (max concentration tested 5000 nM) as well?
OUTPUT: 1.9

INPUT: Would you mind doing O=C(Nc1cccc(C(F)(F)F)c1)Nc1cc(S(=O)(=O)NC2CC2)ccc1-c1ccsc1 [AGI-6780] (max concentration tested 10000 nM) as well?
OUTPUT: 0

INPUT: Would you mind doing Cn1cc(-c2ccc3nnc(C(F)(F)c4ccc5ncccc5c4)n3n2)cn1 (max concentration tested 10000 nM) as well?
OUTPUT: 0.71

---
INPUT: Missing value: drug sensitivity score, normal NK cells expanded with K562-aAPC, entry CO[C@H]1C[C@@H]2CC[C@@H](C)[C@@](O)(O2)C(=O)C(=O)N2CCCC[C@H]2C(=O)O[C@H]([C@H](C)C[C@@H]2CC[C@@H](OP(C)(C)=O)[C@H](OC)C2)CC(=O)[C@H](C)/C=C(\C)[C@@H](O)[C@@H](OC)C(=O)[C@H](C)C[C@H](C)/C=C/C=C/C=C/1C [Ridaforolimus] (max concentration tested 100 nM) . Fill in?
OUTPUT: 1.24

INPUT: Would you mind doing Clc1ccc(C(c2ccccc2Cl)C(Cl)Cl)cc1 (stereo unspecified) [Mitotane] (max concentration tested 10000 nM) as well?
OUTPUT: 0

----------
System: DERL-7 (IL-2 2.5 ng/mL)
Experiment: drug sensitivity score (DSS) (DSS units); higher = more sensitive; extreme values may be limits of the assay
Conditions: 72 h
readout-kind: drug sensitivity score
The reply should be a number, written without any unit.

Some entries whose results are on file:
INPUT: What does the data say about its drug sensitivity score? Entry: Oc1ccc2c(c1)CC[C@H](c1ccccc1)[C@@H]2c1ccc(OCCN2CCCC2)cc1 [Lasofoxifene] (max concentration tested 1000 nM)
OUTPUT: 0

INPUT: Would you mind doing CCC(C)n1ncn(-c2ccc(N3CCN(c4ccc(OCC5COC(Cn6cncn6)(c6ccc(Cl)cc6Cl)O5)cc4)CC3)cc2)c1=O (configuration not stated) [Itraconazole] (max concentration tested 5000 nM) as well?
OUTPUT: 6.05

INPUT: Would you mind doing CC(C)(C)c1cc(NC(=O)Nc2ccc(-c3cn4c(n3)sc3cc(OCCN5CCOCC5)ccc34)cc2)no1 [Quizartinib] (max concentration tested 1000 nM) as well?
OUTPUT: 2.22

INPUT: Would you mind doing Nc1ncn([C@H]2C[C@H](O)[C@@H](CO)O2)c(=O)n1 [Decitabine] (max concentration tested 10000 nM) as well?
OUTPUT: 14.1

INPUT: Would you mind doing O=P1(N(CCCl)CCCl)NCCCO1 (configuration not stated) [Cyclophosphamide] (max concentration tested 40000 nM) as well?
OUTPUT: 0

---
INPUT: What does the data say about its drug sensitivity score? Entry: Cc1cnc(Nc2ccc(OCCN3CCCC3)cc2)nc1Nc1cccc(S(=O)(=O)NC(C)(C)C)c1 (max concentration tested 10000 nM)
OUTPUT: 18.8

INPUT: Would you mind doing COCC[n+]1c2c(n(Cc3cnccn3)c1C)C(=O)c1ccccc1C2=O [YM155] (max concentration tested 10000 nM) as well?
OUTPUT: 36.2

----------
Test system: NKL (IL-2 2.5 ng/mL)
Test: drug sensitivity score (DSS) (DSS units); higher = more sensitive; extreme values may be limits of the assay
Details: 72 h
Parameter threshold = 3. Response is YES when drug sensitivity score meets or exceeds it, else NO.

INPUT: drug sensitivity score >= 3 for N#Cc1ccc(C(c2ccc(C#N)cc2)n2cncn2)cc1 [Letrozole] (max concentration tested 10000 nM) ?
OUTPUT: NO

---
INPUT: drug sensitivity score >= 3 for O=P1(N(CCCl)CCCl)NCCCO1 (centres undefined) [Cyclophosphamide] (max concentration tested 40000 nM) ?
OUTPUT: NO

INPUT: Would you mind doing C=CCNC1=C2C[C@@H](C)C[C@H](OC)[C@H](O)[C@@H](C)/C=C(\C)[C@H](OC(N)=O)[C@@H](OC)/C=C\C=C(/C)C(=O)NC(=CC1=O)C2=O [Tanespimycin] (max concentration tested 10000 nM) as well?
OUTPUT: YES

----------
System: KAI3 (IL-2 2.5 ng/mL)
Experiment: percent inhibition of viability; higher = more inhibition
Details: 72 h; 10000 nM
Collected percent inhibition of viability values appear next to each entry.

INPUT: What does the data say about its percent inhibition of viability? Entry: COc1cc2nccc(Oc3ccc(NC(=O)Nc4cc(C)on4)c(Cl)c3)c2cc1OC [Tivozanib] (max concentration tested 10000 nM)
OUTPUT: 33.2%

INPUT: Would you mind doing C[C@]1(c2nc3c(C(N)=O)cccc3[nH]2)CCCN1 [Veliparib] (max concentration tested 10000 nM) as well?
OUTPUT: 34.3%

Continue with the compound presented below.
INPUT: What does the data say about its percent inhibition of viability? Entry: CC[C@H](Nc1ncnc2[nH]cnc12)c1nc2cccc(F)c2c(=O)n1-c1ccccc1 [Idelalisib] (max concentration tested 10000 nM)
OUTPUT: 24.5%

----------
Collected percent inhibition of viability values appear next to each entry.
Test system: DERL-7 (IL-2 2.5 ng/mL)
Test: percent inhibition of viability; higher = more inhibition
Conditions: 72 h; 1 nM

Some entries whose results are on file:
INPUT: What does the data say about its percent inhibition of viability? Entry: COc1cc2c(NC3CCN(C(C)C)CC3)nc(N3CCC(F)(F)CC3)nc2cc1OCCCN1CCCC1 [UNC0642] (max concentration tested 10000 nM)
OUTPUT: -0.28%

INPUT: Would you mind doing CN1CCC(CNc2ccc3ncc(-c4cccc(OC(F)(F)F)c4)n3n2)CC1 [SGI-1776] (max concentration tested 10000 nM) as well?
OUTPUT: 4.46%

INPUT: Would you mind doing Nc1cc(C(F)(F)F)c(-c2cc(N3CCOCC3)nc(N3CCOCC3)n2)cn1 [Buparlisib] (max concentration tested 10000 nM) as well?
OUTPUT: -4.02%

INPUT: Would you mind doing Cc1ccc(NC(=O)c2ccc(CN3CCN(C)CC3)cc2)cc1Nc1nc(-c2cccnc2)cs1 [Masitinib] (max concentration tested 10000 nM) as well?
OUTPUT: -4.46%

---
INPUT: What does the data say about its percent inhibition of viability? Entry: COc1cc(C(=O)O)ccc1NC(=O)[C@@H]1N[C@@H](CC(C)(C)C)[C@](C#N)(c2ccc(Cl)cc2F)[C@H]1c1cccc(Cl)c1F [RG7388] (max concentration tested 10000 nM)
OUTPUT: -5.33%

INPUT: Would you mind doing O=c1[nH]cc(F)c(=O)[nH]1 [Fluorouracil] (max concentration tested 10000 nM) as well?
OUTPUT: -1.71%

----------
Test system: normal primary NK cells, pool 2 (3 donors) (IL-2 2.5 ng/mL)
Experiment: drug sensitivity score (DSS) (DSS units); higher = more sensitive; extreme values may be limits of the assay
Conditions: 72 h
Collected drug sensitivity score values appear next to each entry.
The reply should be a number, written without any unit.

INPUT: What does the data say about its drug sensitivity score? Entry: CC[C@@H]1C(=O)N(C)c2cnc(Nc3ccc(C(=O)NC4CCN(C)CC4)cc3OC)nc2N1C1CCCC1 [BI 2536] (max concentration tested 1000 nM)
OUTPUT: 4.32

INPUT: Would you mind doing COc1cccc2cc(-c3nc([C@H]4CC[C@H](C(=O)O)CC4)n4ncnc(N)c34)[nH]c12 [OSI-027] (max concentration tested 10000 nM) as well?
OUTPUT: 4.93

---
INPUT: What does the data say about its drug sensitivity score? Entry: O=C(Cc1ccc(-c2ccc(OCCN3CCOCC3)cc2)cn1)NCc1ccccc1 [KX2-391] (max concentration tested 10000 nM)
OUTPUT: 1.59

INPUT: Would you mind doing O=C(/C=C/c1cccc(S(=O)(=O)Nc2ccccc2)c1)NO [Belinostat] (max concentration tested 10000 nM) as well?
OUTPUT: 21.2

INPUT: Would you mind doing Cc1cc(C)c(CNC(=O)c2cc(-c3ccc(CN4CCOCC4)cc3)cc3c2cnn3C2CCCC2)c(=O)[nH]1 [EPZ-5687] (max concentration tested 10000 nM) as well?
OUTPUT: 0

INPUT: Would you mind doing CNC(=O)c1ccc(-c2cnc3ncc(Cc4ccc5ncccc5c4)n3n2)cc1F [NVP-INC280] (max concentration tested 1000 nM) as well?
OUTPUT: 0

INPUT: Would you mind doing CO[C@H]1C[C@@H]2CC[C@@H](C)[C@@](O)(O2)C(=O)C(=O)N2CCCC[C@H]2C(=O)O[C@H]([C@H](C)C[C@@H]2CC[C@@H](OP(C)(C)=O)[C@H](OC)C2)CC(=O)[C@H](C)/C=C(\C)[C@@H](O)[C@@H](OC)C(=O)[C@H](C)C[C@H](C)/C=C/C=C/C=C/1C [Ridaforolimus] (max concentration tested 100 nM) as well?
OUTPUT: 2.58

INPUT: Would you mind doing CC(C)C[C@H](NC(=O)[C@H](Cc1ccccc1)NC(=O)c1cnccn1)B(O)O [Bortezomib] (max concentration tested 1000 nM) as well?
OUTPUT: 29.2
